experimental-target: T1, DNAJA1 (DJA1), His-tagged (UniProt P31689 1-397)
T1 construct: DNAJA1, J-domain co-chaperone of HSC70
protocol-text: ELISA; titration of increasing concentrations of chaperone on immobilised biotinylated peptide; HSC70 with ATP; apparent Kd from linearised binding curves
study-conditions: both partners purified
pKd: −log10 of the molar value. Ends that are not written are not given here. * marks the point of attachment. Biotin = O=C1N[C@H]2[C@H](CS[C@H]2CCCCC(=O)*)N1
Here the recorded pKd is given for each entry.

{"binder": "Biotin-GSGSRTLKQAFADCTVILC (cysteine pairing not given here, linker; CFTR, 15-mer numbered by its middle residue 1393, from NBD2; source: synthetic peptide (Mimotopes, PepSet purity)) [CFTR peptide 1393-L, biotinylated (library form)]", "pKd": 5.82}
{"binder": "Biotin-GSGSTVILCEHRIEAMLEC (cysteine pairing not given here, linker; CFTR, 15-mer numbered by its middle residue 1403, from NBD2; source: synthetic peptide (Mimotopes, PepSet purity)) [CFTR peptide 1403-L, biotinylated (library form)]", "pKd": 5.83}
